# System: OVCAR3 cells
# Method: MTT cell proliferation/viability assay, OVCAR3 ovarian cancer cells
# Format: cell-based
# Condition Notes: Homo sapiens, OVCAR-3, 48 hours, MTT, DMSO alone controls = 100% viability, Trial 2, read-out: Trial 2 OVCAR3 (viability)
Sorting guide: entries reporting viability at 1 µM beneath 60% go in the satisfied pile, the rest go in the not satisfied pile.

# example entries with known answers
Inquiry: Hello, is viability at 1 µM of the following compound strictly smaller than 60%? Cc1cccc(-n2nc(C(C)(C)C)c3c2NC2=C(C(=O)CC(C)(C)C2)C3c2ccc(C(C)(C)C)cc2)c1C (stereo not drawn)
Reply text: satisfied

Inquiry: Hello, is viability at 1 µM of the following compound strictly smaller than 60%? Cc1ccc(C2C3=C(CC(C)(C)CC3=O)Nc3c2c(C(C)(C)C)nn3-c2ccc(C)cc2)cc1 (stereo not drawn)
Reply text: satisfied

Inquiry: Hello, is viability at 1 µM of the following compound strictly smaller than 60%? COc1ccc(-n2nc(C(C)(C)C)c3c2NC2=C(C(=O)CC(C)(C)C2)C3c2ccccc2Cl)cc1 (stereo not drawn)
Reply text: satisfied

Inquiry: Hello, is viability at 1 µM of the following compound strictly smaller than 60%? COc1ccccc1C1C2=C(CC(C)(C)CC2=O)Nc2c1c(C(C)(C)C)nn2-c1ccc(Cl)c(C)c1 (stereo not drawn)
Reply text: satisfied

Inquiry: Hello, is viability at 1 µM of the following compound strictly smaller than 60%? CC1(C)CC(=O)C2=C(C1)Nc1c(c(C(C)(C)C)nn1-c1ccc(Cl)c(Cl)c1)C2c1cccc(OCc2ccccc2)c1 (stereo not drawn)
Reply text: satisfied

Inquiry: Hello, is viability at 1 µM of the following compound strictly smaller than 60%? CC1(C)CC(=O)C2=C(C1)Nc1c(c(-c3ccccc3)nn1-c1ccc(F)cc1)C2c1ccc(C(C)(C)C)cc1 (stereo not drawn)
Reply text: not satisfied

Inquiry: Hello, is viability at 1 µM of the following compound strictly smaller than 60%? COc1ccc(OC)c(C2C3=C(CC(C)(C)CC3=O)Nc3c2c(C(C)(C)C)nn3-c2ccc(C)cc2C)c1 (stereo not drawn)
Reply text: not satisfied

Inquiry: Hello, is viability at 1 µM of the following compound strictly smaller than 60%? Cc1ccc(C2C3=C(CC(C)(C)CC3=O)Nc3c2c(C(C)(C)C)nn3-c2cccc(F)c2)cc1 (stereo not drawn)
Reply text: satisfied

Inquiry: Hello, is viability at 1 µM of the following compound strictly smaller than 60%? COc1cc(OC)cc(C2C3=C(CC(C)(C)CC3=O)Nc3c2c(C(C)(C)C)nn3-c2ccc(Cl)cc2)c1 (stereo not drawn)
Reply text: not satisfied

Continue with the compound presented below.
Inquiry: Hello, is viability at 1 µM of the following compound strictly smaller than 60%? CCOc1ccc(C2C3=C(CC(C)(C)CC3=O)Nc3c2c(C(C)(C)C)nn3-c2ccc(Cl)cc2)cc1 (stereo not drawn)
Reply text: not satisfied
